assayed system: T1, native IGF-1 receptor of human MCF-7 cells (human, UniProt P08069 31-1367)
T1 construct: whole, on cells; assayed in membranes prepared from MCF-7 cells
run description: radioligand competition, [125I]IGF-1 on MCF-7 cell membranes
For each record, write down the corresponding log10 of IC50.
Each number you see is log10 of IC50, and the unit inside the log is nM.

(Asn^59, Thr^63, des-Leu^64, des-Lys^65, Glu^70)hIGF-1(1-70)-OH (ligand, synthetic; Leu64 and Lys65 deleted; free acid C-terminus; disulfides 6-48, 47-52, 18-61) GPETLCGAELVDALQFVCGDRGFYFNKPTGYGSSSRRAPQTGIVDECCFRSCDLRRLENYCATPAKSE
1.28
(Pro^27, Lys^28, Asn^59)hIGF-1(1-70)-OH (ligand, synthetic; free acid C-terminus; disulfides 6-48, 47-52, 18-61) GPETLCGAELVDALQFVCGDRGFYFNPKTGYGSSSRRAPQTGIVDECCFRSCDLRRLENYCAPLKPAKSA
-0.06
(Leu^59, Arg^65,68)hIGF-1(1-70)-OH (ligand, synthetic; free acid C-terminus; disulfides 6-48, 47-52, 18-61) GPETLCGAELVDALQFVCGDRGFYFNKPTGYGSSSRRAPQTGIVDECCFRSCDLRRLELYCAPLRPARSA
0.46
(Arg^27,65,68, Leu^59)hIGF-1(1-70)-OH (ligand, synthetic; free acid C-terminus; disulfides 6-48, 47-52, 18-61) GPETLCGAELVDALQFVCGDRGFYFNRPTGYGSSSRRAPQTGIVDECCFRSCDLRRLELYCAPLRPARSA
0.43

Entry (Pro^27, Lys^28, Asn^59)hIGF-1(1-62)-OH (ligand, synthetic; free acid C-terminus) GPETLCGAELVDALQFVCGDRGFYFNPKTGYGSSSRRAPQTGIVDECCFRSCDLRRLENYCA : reported log10 of IC50 = ?
0.06
